# System: Plasmodium berghei
# methodSummary: Screen against P. berghei liver stage (PbLuc), transformed with Luciferase, at 10uM
# Type: functional, HepG2
# conditionContext: tested at 10 uM
Screen size: about 69,000 compounds; about 8,600 (12%) showed an effect of 50% or more. For the sample, strong results were picked, then their nearest neighbours and some compounds at random.
quantityName: INHIBITION

structure	result
Cc1ccc(CN2CCCn3cnc(COCC4CC4)c3C2)o1	-49.1%
CCN(Cc1cccs1)C(=O)c1ccc(=O)n(C)c1	28.7%
COCCN(Cc1cccs1)C(=O)c1ccc(=O)n(C)c1	-7.66%

---

List of INHIBITION values.
# System: Plasmodium berghei
# methodSummary: Screen against P. berghei liver stage (PbLuc), transformed with Luciferase, at 10uM
# Type: functional, HepG2
# conditionContext: tested at 10 uM
The whole screen tested about 69,000 compounds, of which about 8,600 (12%) showed an effect of 50% or more. For the sample, strong results were picked, then their nearest neighbours and some compounds at random.

molecule	studyTarget	INHIBITION / %
Cn1cc(N2CC3(CCN(CC4CC4)C3)CC2=O)cn1 (stereo not drawn)	Plasmodium berghei	15.3
CCOc1cc(NC(=O)N2CCC3(CCOCC3)C2)ccc1C	Plasmodium berghei	-38.1
COC(=O)CN1CCC(C(F)(F)F)CC1	Plasmodium berghei	-8.9
Cc1nc(C)c(CNCC2(COc3cccnc3)C[C@@H](O)[C@@H](O)C2)s1 (stereo partly drawn)	Plasmodium berghei	33.6
c1cncc(CN2CC[C@@H]3[C@@H]2CCN3Cc2ccc3c(c2)OCO3)c1	Plasmodium berghei	-8.51
CSc1nc(N)cc(N2C[C@H]3CC[C@@H](C2)N(Cc2cscn2)C3=O)n1	Plasmodium berghei	9.4
CCOC[C@@H]1CC[C@H]2[C@H](CCN2S(=O)(=O)Cc2ccccc2)O1	Plasmodium berghei	57.1
c1cnc(N2CCCn3c(nnc3Cn3cccn3)C2)nc1	Plasmodium berghei	-7.24
Cc1nc(CN2CCN(c3ccc(Cl)cn3)CC2)no1	Plasmodium berghei	-52.4
Cn1nc(C(=O)NCCc2ccc(OC3CCCC3)cc2)ccc1=O	Plasmodium berghei	35.5
CC1CCN(C(=O)C2CCN(c3ccc(Cl)cc3C#N)CC2)CC1	Plasmodium berghei	41
O=C(c1ncncc1Cl)N1CCC2(CCCC2)CC1	Plasmodium berghei	43.1
O=C(c1ncncc1Cl)N1CCN(c2ccc(Cl)cc2)CC1	Plasmodium berghei	44
c1cnn(Cc2nnc3n2CCCN(c2nccs2)C3)c1	Plasmodium berghei	53.9
Cn1ccc(C(=O)Nc2cc(F)ccc2OCC2CCCO2)cc1=O (stereo not drawn)	Plasmodium berghei	15.6
CC(=O)N1[C@H](CN(C)C)C[C@@H]2CN(C(=O)c3ccsc3)CC[C@@H]21	Plasmodium berghei	-24.5
CC(=O)N[C@@H]1CN(Cc2oc3ccccc3c2C)C[C@H]1c1ccc(C)o1	Plasmodium berghei	37.7
CCCn1ccnc1-c1nccn1CCC(N)=O	Plasmodium berghei	29.8
CCOC[C@H]1CC[C@H]2[C@H](CCN2S(=O)(=O)Cc2ccccc2)O1	Plasmodium berghei	12.1
O=C(Nc1cn[nH]c1)c1ccncc1	Plasmodium berghei	35.95
CCN(CC(=O)N(C)C)C(=O)c1ccc(-c2nc(C)cs2)cc1	Plasmodium berghei	30.9
Cc1nc(C2CCCN(C(=O)c3ccc(Cl)cn3)C2)no1 (stereo not drawn)	Plasmodium berghei	-2.53
Cc1nn(C)c(C)c1C1CCCN1Cc1nc2ccccc2c(=O)[nH]1 (stereo not drawn)	Plasmodium berghei	-33.7
